Each recorded value in this set is attributed to patent US6258837A.

# Test System: human NPY Y5 receptor (Homo sapiens, UniProt Q15761)
# Sequence (Q15761 1-445): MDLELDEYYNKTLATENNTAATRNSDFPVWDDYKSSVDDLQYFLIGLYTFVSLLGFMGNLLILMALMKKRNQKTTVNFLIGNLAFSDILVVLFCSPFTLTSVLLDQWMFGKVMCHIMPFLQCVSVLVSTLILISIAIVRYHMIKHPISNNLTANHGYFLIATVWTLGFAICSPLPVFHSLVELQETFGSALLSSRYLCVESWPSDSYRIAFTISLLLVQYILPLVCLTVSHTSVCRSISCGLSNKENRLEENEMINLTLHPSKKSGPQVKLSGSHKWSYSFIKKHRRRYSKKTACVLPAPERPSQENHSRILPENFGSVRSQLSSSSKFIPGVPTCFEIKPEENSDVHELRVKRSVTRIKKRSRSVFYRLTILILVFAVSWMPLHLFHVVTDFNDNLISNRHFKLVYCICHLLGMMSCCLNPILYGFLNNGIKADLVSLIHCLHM
pIC50: −log10 of the molar value.
Quantity Name: pIC50

>>> reported_value("CC1(C)CC(=O)C(C2C3=C(CC(C)(C)CC3=O)Oc3ccccc32)C(=O)C1 (racemic) [compound [I]]")
7.57
